- TARGET_SYSTEM: c-Myc–Max(S)/DNA complex (Homo sapiens, UniProt P01106)
- ASSAY_INFO: EMSA, disruption of c-Myc–Max
- Assay type: biochemical
- ASSAY_CONTEXT: 100 µM compound, n = 1
VALUE_TYPE: EMSA screening, disruption of c-Myc–Max(S)/DNA binding

# annotated cases, reported EMSA screening, disruption of c-Myc–Max(S)/DNA binding shown
COMPOUND	RECORDED_VALUE
CC(C)COc1nc(C(=O)O)ccc1NC(=O)c1ccc([N+](=O)[O-])c(OCC(C)C)n1 [compound 16]	complete disruption
CC(C)COc1cc(C(=O)O)ccc1NC(=O)c1ccc([N+](=O)[O-])c(OCc2cccc3ccccc23)c1 [4da]	potent activity
CC(C)COc1cc(C(=O)O)ccc1NC(=O)c1ccc([N+](=O)[O-])c(OCc2ccccc2)c1 [4ca]	complete disruption
CC(C)COc1cc(C(=O)O)ccc1NC(=O)c1ccc([N+](=O)[O-])c(OCC(C)C)n1 [compound 15]	complete disruption
CCOC(=O)C(=O)Nc1ccc(C(=O)Nc2ccc(C(=O)O)cc2OCC(C)C)cc1OCC(C)C [compound 21]	complete disruption

Consider now this further compound.
The reported EMSA screening, disruption of c-Myc–Max(S)/DNA binding value, c-Myc–Max(S)/DNA complex (Homo sapiens, UniProt P01106), for CC(C)COc1cc(C(=O)O)ccc1NC(=O)c1ccc([N+](=O)[O-])c(OCC(C)C)c1 [4aa] reads potent activity

---

- TARGET_SYSTEM: c-Myc–Max(S) heterodimer (Homo sapiens)
- Sequence (P01106 368-452): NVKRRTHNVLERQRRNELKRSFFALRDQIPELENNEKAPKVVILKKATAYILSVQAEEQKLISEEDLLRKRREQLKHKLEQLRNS
- Sequence (P61244 1-151 isoform P61244-2 partner): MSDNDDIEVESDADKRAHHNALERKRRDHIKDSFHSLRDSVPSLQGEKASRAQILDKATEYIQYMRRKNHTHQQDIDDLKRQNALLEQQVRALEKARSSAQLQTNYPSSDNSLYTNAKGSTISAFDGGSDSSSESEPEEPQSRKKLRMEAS
- ASSAY_INFO: SPR, c-Myc–Max
VALUE_TYPE: Kd

Form field Kd, entry `CC(C)COc1cc(C(=O)O)ccc1NC(=O)c1ccc([N+](=O)[O-])c(OCc2cccc3ccccc23)c1` : ~10 µM
